Target: Human Aryl Hydrocarbon Receptor (AHR) (Homo sapiens, UniProt P35869)
Construct: purchased INDIGO Bioscience IB06001-32; host or cells: AHR Reporter Cell (proprietary kit cells)
Sequence (P35869 11-848): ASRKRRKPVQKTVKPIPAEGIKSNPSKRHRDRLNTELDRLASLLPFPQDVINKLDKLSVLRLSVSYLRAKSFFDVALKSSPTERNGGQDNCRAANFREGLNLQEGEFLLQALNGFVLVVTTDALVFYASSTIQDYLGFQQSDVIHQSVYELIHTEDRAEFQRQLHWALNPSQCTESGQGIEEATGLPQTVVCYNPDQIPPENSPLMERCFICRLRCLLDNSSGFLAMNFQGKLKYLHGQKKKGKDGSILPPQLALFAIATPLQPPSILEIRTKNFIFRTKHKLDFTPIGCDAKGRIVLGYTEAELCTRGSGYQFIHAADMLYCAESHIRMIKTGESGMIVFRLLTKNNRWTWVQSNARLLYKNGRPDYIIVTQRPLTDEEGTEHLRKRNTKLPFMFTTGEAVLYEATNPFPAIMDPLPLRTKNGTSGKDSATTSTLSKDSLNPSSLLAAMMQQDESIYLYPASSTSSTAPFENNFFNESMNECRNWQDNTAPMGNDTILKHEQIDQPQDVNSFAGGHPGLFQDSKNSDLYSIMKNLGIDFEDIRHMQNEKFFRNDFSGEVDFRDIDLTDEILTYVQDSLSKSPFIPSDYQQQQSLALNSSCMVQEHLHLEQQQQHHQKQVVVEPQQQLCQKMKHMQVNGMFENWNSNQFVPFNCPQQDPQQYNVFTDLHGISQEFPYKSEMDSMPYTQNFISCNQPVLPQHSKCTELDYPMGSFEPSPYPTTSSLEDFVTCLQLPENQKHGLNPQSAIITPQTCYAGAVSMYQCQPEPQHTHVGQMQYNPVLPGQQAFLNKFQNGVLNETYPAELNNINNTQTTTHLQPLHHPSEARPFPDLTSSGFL
Assay: AHR agonist reporter assay in human cell line (INDIGO luciferase reporter)
Assay type: cell-based
Settings: reporter cells, 24 hours incubation, second line of cell; read-out: AHR abEC50
The molecules listed here are annotated with their EC50.

Use the examples below as a reference point.
Chem smiles: CC(C)c1c(O)cc(-c2ccnc3ccc(F)cc23)cc1O
EC50: > 100 nM

Chem smiles: CC(C)c1c(O)cc(-c2ccc3nccc(F)c3c2)cc1O
EC50: > 100 nM

Chem smiles: CC(C)c1c(O)cc(-c2nccc3cccnc23)cc1O
EC50: > 100 nM

Chem smiles: CC(C)c1ncc(-c2ccnc3ccc(F)cc23)cc1O
EC50: > 100 nM

Chem smiles: CNc1ccnc2ccc(-c3cc(O)c(C(C)C)c(O)c3)cc12
EC50: > 100 nM

Query (molecule): CCCc1c(O)cc(/C=C/c2ccccc2)cc1F ; field requested: EC50
11.5 nM

* * *

test system: AHR-regulated gene CYP1A1; test: AHR-regulated CYP1A1 expression in human monocytic U937 cell line (qPCR); details: U937 cells, 16 hours, CYP1A1 relative to GAPDH
Metric: CYP1A1 (% activation to Tapinarof at 1 μM) (%)
Supply the numeric figure in %, leaving out any unit text.

Compound: CC(C)c1ncc(-c2cc3ccccc3cn2)cc1O [Compound 97]
Data value: 78.9

Missing value: CYP1A1 (% activation to Tapinarof at 1 μM), AHR-regulated gene CYP1A1, entry CC(C)c1ncc(-c2nc3ccccc3o2)cc1O [Compound 100] . Fill in?
90.5

Thanks! And CC(C)c1c(O)cc(-c2nc3ccccc3o2)cc1O [Compound 49] ?
95.6

Thanks! And CC(C)c1c(O)cc(/C=C/c2ccccc2)cc1O [Tapinarof, reference compound] ?
100

* * *

The molecules listed here are annotated with their EC50.
target: Human Aryl Hydrocarbon Receptor (AHR) (Homo sapiens, UniProt P35869); construct: purchased INDIGO Bioscience IB06001-32; host or cells: AHR Reporter Cell (proprietary kit cells); assay: AHR agonist reporter assay in human cell line (INDIGO luciferase reporter); assay type: cell-based; details: reporter cells, 24 hours incubation, second line of cell; read-out: AHR abEC50;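 note: firefly luciferase luminescence read on a plate reader, values normalized against positive and negative controls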

Molecule: CC(C)c1nc2c(cc1O)CC(c1ccccc1)O2 (stereo not drawn) [Compound 127]
EC50: > 0.1 µM

Missing value: EC50, Human Aryl Hydrocarbon Receptor (AHR) (Homo sapiens, UniProt P35869), entry CC(C)c1c(O)cc(-c2ccnc3c(Cl)cccc23)cc1O [Compound 17] . Fill in?
> 0.1 µM

Thanks! And CC(C)c1ncc(-c2cnc3ccccc3c2)cc1O [Compound 99] ?
> 0.1 µM

Thanks! And CC(C)c1c(O)cc([S+]([O-])c2ccccc2)cc1O (stereo not drawn) [Compound 130] ?
> 0.4 µM

Thanks! And CC(C)c1ncc(-c2ccnc3c(F)cccc23)cc1O [Compound 54] ?
> 0.1 µM

Thanks! And CC(C)c1ncc(-c2ccnc3c(Cl)cccc23)cc1O [Compound 68] ?
> 0.1 µM

Thanks! And CC(C)c1c(O)cc(-c2ccc3ncnc(N)c3c2)cc1O [Compound 42] ?
> 0.1 µM

Thanks! And C=C(C)c1c(OC)cc(/C=C/c2ccccc2)cc1OC [Compound 110] ?
> 0.1 µM

Thanks! And CC(C)c1ncc(-c2ccc3nccnc3c2)cc1O [Compound 91] ?
> 0.1 µM

Thanks! And CC(C)n1c(O)cc(/C=C/c2ccccc2)cc1=O [Compound 105] ?
> 0.4 µM

Thanks! And CC(C)c1ncc(-c2nc3ccccc3o2)cc1O [Compound 100] ?
> 1 µM

Thanks! And CC(C)c1ncc(-c2cc3cnccc3cc2F)cc1O [Compound 85] ?
> 0.1 µM
